# measurementTarget: UniProt P29274
# Sequence (P29274 whole entry): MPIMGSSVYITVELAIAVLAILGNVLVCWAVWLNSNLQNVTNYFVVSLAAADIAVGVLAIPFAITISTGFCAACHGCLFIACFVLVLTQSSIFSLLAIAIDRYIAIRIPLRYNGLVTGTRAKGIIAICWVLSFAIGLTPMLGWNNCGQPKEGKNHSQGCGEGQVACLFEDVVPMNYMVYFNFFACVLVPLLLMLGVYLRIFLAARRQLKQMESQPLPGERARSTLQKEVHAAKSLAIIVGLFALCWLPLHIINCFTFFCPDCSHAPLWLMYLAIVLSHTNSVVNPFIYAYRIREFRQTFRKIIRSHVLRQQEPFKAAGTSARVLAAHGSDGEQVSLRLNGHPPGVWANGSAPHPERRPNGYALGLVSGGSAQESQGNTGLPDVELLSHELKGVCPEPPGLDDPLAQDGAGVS
# testProtocol: Displacement of [3H]MSX-2 from human recombinant adenosine A2A receptor expressed in CHO cells
# Format: cell-based
pKi: −log10 of the molar value.
Threshold rule: pKi greater than or equal to 7 is rule met; below that, rule not met.

> print(dat)
                                        mol  categorylabel
1  CCCn1c(=O)[nH]c2nc(-c3ccc(S(=O)(=O)N4CCN(CCc5ccccc5)CC4)cc3)[nH]c2c1=O   rule not met

(Q) Please check the record `CCn1c(=O)[nH]c2nc(-c3ccc(S(=O)(=O)N4CCN(c5ccc(Cl)cc5)CC4)cc3)[nH]c2c1=O` and state if its pKi is at or above 7.
(A) rule met

(Q) Please check the record `CCn1c(=O)[nH]c2nc(-c3ccc(S(=O)(=O)N4CCN(Cc5ccc(OC)cc5)CC4)cc3)[nH]c2c1=O` and state if its pKi is at or above 7.
(A) rule not met

(Q) Please check the record `CCn1c(=O)[nH]c2nc(-c3ccc(S(=O)(=O)N4CCN(Cc5ccc(Cl)cc5)CC4)cc3)[nH]c2c1=O` and state if its pKi is at or above 7.
(A) rule met

---

# measurementTarget: Adenosine receptor A1 (Homo sapiens, UniProt P30542)
# testProtocol: Displacement of [3H]CCPA from human adenosine A1 receptor expressed in CHO cells
# Assay type: cell-based
measure: pKi
One number for each entry, as −log10 of the molar value.

> print(dat)
                                        mol  observed
1  CCCn1c(=O)[nH]c2nc(-c3ccc(S(=O)(=O)N4CCN(Cc5ccc(C(F)(F)F)cc5)CC4)cc3)[nH]c2c1=O      5.25

// for each molecule in input: emit pKi
1. CCn1c(=O)[nH]c2nc(-c3ccc(S(=O)(=O)N4CCN(Cc5cccc(C(F)(F)F)c5)CC4)cc3)[nH]c2c1=O
2. CCn1c(=O)[nH]c2nc(-c3ccc(S(=O)(=O)N4CCN(Cc5cccc(F)c5)CC4)cc3)[nH]c2c1=O
3. CCn1c(=O)[nH]c2nc(-c3ccc(S(=O)(=O)N4CCN(Cc5ccc(F)cc5)CC4)cc3)[nH]c2c1=O
4. CCCn1c(=O)[nH]c2nc(-c3ccc(S(=O)(=O)N4CCN(Cc5ccc(Cl)cc5)CC4)cc3)[nH]c2c1=O
5. CCCn1c(=O)[nH]c2nc(-c3ccc(S(=O)(=O)N4CCN(Cc5ccc6c(c5)OCO6)CC4)cc3)[nH]c2c1=O

(A)
1. 5.64
2. 5.68
3. 5.74
4. 5.65
5. 6.35

// for each molecule in input: emit pKi
1. CCn1c(=O)[nH]c2nc(-c3ccc(S(=O)(=O)N4CCN(Cc5ccccc5)CC4)cc3)[nH]c2c1=O
2. CCCn1c(=O)[nH]c2nc(-c3ccc(S(=O)(=O)N4CCN(Cc5cccc(F)c5)CC4)cc3)[nH]c2c1=O
3. CCCn1c(=O)[nH]c2nc(-c3ccc(S(=O)(=O)NC4CCN(Cc5ccccc5)CC4)cc3)[nH]c2c1=O
4. CCCn1c(=O)[nH]c2nc(-c3ccc(S(=O)(=O)N4CCN(Cc5cccc(C(F)(F)F)c5)CC4)cc3)[nH]c2c1=O

(A)
[5.74, 5.64, 5.93, 5.58]

---

# measurementTarget: Adenosine receptor A3 (Homo sapiens, UniProt P0DMS8)
measure: Ki (nM)
Numbers only, in nM.

(Q) Specify Ki for `CCCn1c(=O)c2[nH]c(-c3ccc(OCC(=O)NCCO)cc3)cc2n(C)c1=O` and stop.
(A) 422

---

# measurementTarget: Adenosine receptor A1 (Homo sapiens) (UniProt P30542)
# Sequence (P30542 whole entry): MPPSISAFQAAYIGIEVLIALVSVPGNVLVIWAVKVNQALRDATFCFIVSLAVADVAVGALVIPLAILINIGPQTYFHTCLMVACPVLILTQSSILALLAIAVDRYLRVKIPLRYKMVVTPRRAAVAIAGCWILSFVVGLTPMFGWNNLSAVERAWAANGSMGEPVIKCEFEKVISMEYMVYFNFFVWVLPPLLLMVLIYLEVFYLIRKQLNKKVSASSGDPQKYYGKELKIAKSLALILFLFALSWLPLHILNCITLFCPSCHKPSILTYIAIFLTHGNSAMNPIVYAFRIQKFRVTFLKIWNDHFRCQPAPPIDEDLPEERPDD
# testProtocol: Displacement of [3H]CCPA from human recombinant adenosine A1 receptor expressed in CHO cells at 10 uM
# Type: cell-based
measure: inhibition (%)
Give bare numbers, in %.

> print(dat)
                                        mol     measure  observed
1  CCCn1c(=O)[nH]c2nc(-c3ccc(S(=O)(=O)N4CCN(Cc5ccc(OC)cc5)CC4)cc3)[nH]c2c1=O  inhibition        38

// for each compound in input: emit inhibition
1. CCn1c(=O)[nH]c2nc(-c3ccc(S(=O)(=O)N4CCN(Cc5ccc(Cl)cc5)CC4)cc3)[nH]c2c1=O
2. CCn1c(=O)[nH]c2nc(-c3ccc(S(=O)(=O)N4CCN(Cc5ccc6c(c5)OCO6)CC4)cc3)[nH]c2c1=O
3. CCCn1c(=O)[nH]c2nc(-c3ccc(S(=O)(=O)N4CCN(c5ccc(Cl)cc5)CC4)cc3)[nH]c2c1=O
4. CCCn1c(=O)[nH]c2nc(-c3ccc(S(=O)(=O)N4CCN(CCc5ccccc5)CC4)cc3)[nH]c2c1=O
5. CCn1c(=O)[nH]c2nc(-c3ccc(S(=O)(=O)N4CCN(Cc5ccc(C(F)(F)F)cc5)CC4)cc3)[nH]c2c1=O

(A)
1. 18
2. 28
3. 10
4. 39
5. 25

---

# measurementTarget: UniProt P29274
# testProtocol: Displacement of [3H]MSX-2 from human recombinant adenosine A2A receptor expressed in CHO cells
# Format: cell-based
Please respond with reported pKi for every item in the list.
One number for each entry, as −log10 of the molar value.

Some solved entries appear below for comparison.
> print(dat)
                                        mol  observed
1  CCCn1c(=O)[nH]c2nc(-c3ccc(S(=O)(=O)N4CCN(Cc5ccc(OC)cc5)CC4)cc3)[nH]c2c1=O      6.48
2  CCCn1c(=O)[nH]c2nc(-c3ccc(S(=O)(=O)N4CCN(Cc5cccc(F)c5)CC4)cc3)[nH]c2c1=O      6.56

// for each molecule in input: emit pKi
1. CCCn1c(=O)[nH]c2nc(-c3ccc(S(=O)(=O)N4CCN(Cc5ccc6c(c5)OCO6)CC4)cc3)[nH]c2c1=O
2. CCn1c(=O)[nH]c2nc(-c3ccc(S(=O)(=O)N4CCN(Cc5ccc(C(F)(F)F)cc5)CC4)cc3)[nH]c2c1=O
3. CCn1c(=O)[nH]c2nc(-c3ccc(S(=O)(=O)N4CCN(Cc5ccc(F)cc5)CC4)cc3)[nH]c2c1=O
4. CCCn1c(=O)[nH]c2nc(-c3ccc(S(=O)(=O)N4CCN(Cc5cccc(C(F)(F)F)c5)CC4)cc3)[nH]c2c1=O
5. CCCn1c(=O)[nH]c2nc(-c3ccc(S(=O)(=O)N4CCN(c5ccc(OC)cc5)CC4)cc3)[nH]c2c1=O

(A)
1: 6.95; 2: 7.64; 3: 7.04; 4: 6.51; 5: 5.43

---

Please respond with reported pKi for every item in the list.
# measurementTarget: Adenosine receptor A3 (Homo sapiens, UniProt P0DMS8)
# testProtocol: Displacement of [3H]PSB-11 from human recombinant adenosine A3 receptor expressed in CHO cells
# Type: cell-based
One number for each entry, as −log10 of the molar value.

> print(dat)
                                        mol                         measurementtarget  measure  observed
1  CCCn1c(=O)[nH]c2nc(-c3ccc(S(=O)(=O)N4CCN(Cc5ccc(F)cc5)CC4)cc3)[nH]c2c1=O  Adenosine receptor A3 (Homo sapiens, UniProt P0DMS8)      pKi      6.12
2  CCn1c(=O)[nH]c2nc(-c3ccc(S(=O)(=O)N4CCN(Cc5cccc(Cl)c5)CC4)cc3)[nH]c2c1=O  Adenosine receptor A3 (Homo sapiens, UniProt P0DMS8)      pKi      6.25
3  CCCn1c(=O)[nH]c2nc(-c3ccc(S(=O)(=O)NC4CCN(Cc5ccccc5)CC4)cc3)[nH]c2c1=O  Adenosine receptor A3 (Homo sapiens, UniProt P0DMS8)      pKi      5.68

(Q) Please tell me the measured pKi for `CCCn1c(=O)[nH]c2nc(-c3ccc(S(=O)(=O)N4CCN(Cc5cccc(Cl)c5)CC4)cc3)[nH]c2c1=O` ; system: Adenosine receptor A3 (Homo sapiens, UniProt P0DMS8).
(A) 4.62

---

Please respond with reported Ki for every item in the list.
# measurementTarget: Adenosine receptor A3 (Homo sapiens)
# Sequence (P0DMS8 whole entry): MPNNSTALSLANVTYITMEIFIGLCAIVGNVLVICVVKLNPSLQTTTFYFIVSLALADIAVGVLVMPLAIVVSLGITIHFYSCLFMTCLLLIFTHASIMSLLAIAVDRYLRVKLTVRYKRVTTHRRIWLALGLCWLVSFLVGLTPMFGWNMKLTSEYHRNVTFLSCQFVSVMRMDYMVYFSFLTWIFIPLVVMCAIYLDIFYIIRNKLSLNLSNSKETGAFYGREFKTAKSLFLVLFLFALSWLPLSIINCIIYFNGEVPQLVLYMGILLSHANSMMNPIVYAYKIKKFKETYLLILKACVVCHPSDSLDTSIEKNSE
# testProtocol: Displacement of [3H]PSB-11 from human recombinant adenosine A3 receptor expressed in CHO cells
# Type: cell-based
One number for each entry, in µM.

// for each compound in input: emit Ki
1. CCCn1c(=O)[nH]c2nc(-c3ccc(S(=O)(=O)N4CCN(Cc5ccc6c(c5)OCO6)CC4)cc3)[nH]c2c1=O
2. CCCn1c(=O)[nH]c2nc(-c3ccc(S(=O)(=O)N4CCCCC4)cc3)[nH]c2c1=O
3. CCn1c(=O)[nH]c2nc(-c3ccc(S(=O)(=O)N4CCN(Cc5cccc(F)c5)CC4)cc3)[nH]c2c1=O
4. CCn1c(=O)[nH]c2nc(-c3ccc(S(=O)(=O)N4CCN(c5ccc(Cl)cc5)CC4)cc3)[nH]c2c1=O

(A)
[17.6, 0.14, 5.78, 0.434]
